These data points were gathered from PubChem BioAssay (NCATS).

# System: Dd2
# procedure.summary: qHTS profiling for inhibitors of Plasmodium falciparum proliferation (AID 504749); note: nearly all actives have a fitted effect of over 60% in size
# applied.conditions: P. falciparum in erythrocytes, SYBR Green DNA, 72 h; series mostly up to 28.7 µM
Results filed as inconclusive are left out. The source made the active and inactive calls. Calls come from the whole dose curve; as a rule, active = well fitted inhibition curve with a large enough effect; inconclusive = small, poorly fitted or top-dose-only effect; inactive = flat fitted curve, though single readings scatter.
Response enum: True for active, False for inactive

Examples from the recorded data:
>>> answer_label("O=C1C(CCS(=O)c2ccccc2)C(=O)N(c2ccccc2)N1c1ccccc1 (stereo unspecified)")
"False"
>>> answer_label("CC(C)Cn1cnc2c1c(=O)n(C)c(=O)n2C")
"False"
>>> answer_label("O=C(c1ccc(F)cc1)C1CCN(CCn2c(=S)[nH]c3ccccc3c2=O)CC1")
"True"

Task: Kindly provide the recorded test outcome for the following molecule: C/C=C/c1ccc(O)c(OC)c1
Output: False

Task: Kindly provide the recorded test outcome for the following molecule: CCCCNC(=O)NS(=O)(=O)c1ccc(N)cc1
Output: False

Task: Kindly provide the recorded test outcome for the following molecule: NC(=O)c1ccccc1O
Output: False

Task: Kindly provide the recorded test outcome for the following molecule: C=C[C@@]1(C)CC(=O)[C@]2(O)[C@@]3(C)[C@@H](O)CCC(C)(C)[C@@H]3[C@H](O)[C@H](OC(C)=O)[C@@]2(C)O1
Output: False

Task: Kindly provide the recorded test outcome for the following molecule: CN1CCN(c2c(F)cc3c(=O)c(C(=O)O)cn4c3c2SCC4)CC1
Output: True

Task: Kindly provide the recorded test outcome for the following molecule: FC1(F)C(F)(F)C(F)(F)C2(F)C(F)(F)C(F)(F)C(F)(F)C(F)(F)C2(F)C1(F)F (stereo unspecified)
Output: False

Task: Kindly provide the recorded test outcome for the following molecule: Cc1ccc2c(Br)cc(Br)c(O)c2n1
Output: True

Task: Kindly provide the recorded test outcome for the following molecule: C=CCN1CCc2nc(N)sc2CC1
Output: False

Task: Kindly provide the recorded test outcome for the following molecule: CCCCCCCC/C=C\CCCCCCCCN
Output: False

Task: Kindly provide the recorded test outcome for the following molecule: CC(=O)NC(=O)c1ccccc1O
Output: False

Task: Kindly provide the recorded test outcome for the following molecule: Cn1c(=O)c2[nH]c(Br)nc2n(C)c1=O
Output: False

Task: Kindly provide the recorded test outcome for the following molecule: CN1CCc2cccc3c2[C@H]1Cc1ccc(O)c(O)c1-3
Output: False

Task: Kindly provide the recorded test outcome for the following molecule: CCOC(=O)c1c(N)sc2c1CCN(Cc1ccccc1)C2
Output: True

Task: Kindly provide the recorded test outcome for the following molecule: O=C(O)CCNC(=O)c1ccccc1
Output: False

Task: Kindly provide the recorded test outcome for the following molecule: C#C[C@]1(OC(C)=O)CC[C@H]2[C@@H]3CCC4=C/C(=N/O)CC[C@@H]4[C@H]3CC[C@@]21CC
Output: False

Task: Kindly provide the recorded test outcome for the following molecule: C#C[C@]1(O)CC[C@H]2[C@@H]3CCc4cc(OC)ccc4[C@H]3CC[C@@]21C
Output: False

###

# Test system: PA-1
# procedure.summary: Primary qHTS to identify gynecologic anti-cancer compounds using libraries of approved drugs and bioactive compounds (AID 1345084); note: nearly all actives have a fitted effect of over 55% in size
# applied.conditions: Gynecologic cancer cell panel viability, ATPlite luminescence, 48 h; series mostly up to 57.5 µM
Records with an inconclusive call do not appear. Activity calls are given as the source filed them. The call rests on the fitted dose curve; in most records, active means well fitted cell-killing curve with a large enough effect; inconclusive means small, poorly fitted or top-dose-only effect, or effect the other way; inactive means flat fitted curve, though single readings scatter.
property: outcome

Consider the following illustrative entries.
>>> assay_result("Cc1cccc(C)c1NC(=O)CN1CCCC1")
"inactive"
>>> assay_result("CCCN(CCC)S(=O)(=O)c1ccc(C(=O)O)cc1")
"inactive"
>>> assay_result("COc1ccc(CN(CCN(C)C)c2ncccn2)cc1")
"inactive"
>>> assay_result("OCCOCCN1CCN(C2=Nc3ccccc3Sc3ccccc32)CC1")
"inactive"
>>> assay_result("Clc1cccc(C(c2ccc3nc[nH]c3c2)n2ccnc2)c1 (configuration not stated)")
"inactive"

Please state outcome for every compound in the list that follows.
1. CC1(C)OC[C@@H]2O[C@@]3(C(=O)O)OC(C)(C)O[C@H]3[C@@H]2O1
2. OCc1ccccn1
3. CC[N+](C)(CC)CCOC(=O)C(O)(c1ccccc1)C1CCCCC1 (configuration not stated)
4. CCCN(CCc1cccs1)[C@H]1CCc2c(O)cccc2C1
5. OC[C@H]1O[C@@H](Oc2ccc(O)cc2)[C@H](O)[C@@H](O)[C@@H]1O
6. COc1cc(N)c(Cl)cc1C(=O)NC1CCN(Cc2ccccc2)CC1

Output:
1. inactive
2. inactive
3. inactive
4. inactive
5. inactive
6. inactive

Task: Reported outcome, compound O=C1C(=O)c2ccccc2C(O)=C1C1CCC(c2ccc(Cl)cc2)CC1 (configuration not stated) : ____
Output: inactive
